system.name: Man(a1-2)Man(a1-3)[Man(a1-2)Man(a1-6)]Man(a1-6)[Man(a1-2)Man(a1-2)Man(a1-3)]Man(b1-4)GlcNAc(b1-4)GlcNAc
measurement.description: glycan array binding signal (z-score within array); higher = stronger binding
recorded.conditions: glycan notation: IUPAC condensed, linker removed
Only a selection was taken, and the strongest signals are over-represented in it overall.
Items are presented alongside their recorded glycan array binding signal (z-score).
Reply briefly: the number, and no unit.

binder	glycan array binding signal (z-score)
SrpA (Streptococcus sanguis) (protein) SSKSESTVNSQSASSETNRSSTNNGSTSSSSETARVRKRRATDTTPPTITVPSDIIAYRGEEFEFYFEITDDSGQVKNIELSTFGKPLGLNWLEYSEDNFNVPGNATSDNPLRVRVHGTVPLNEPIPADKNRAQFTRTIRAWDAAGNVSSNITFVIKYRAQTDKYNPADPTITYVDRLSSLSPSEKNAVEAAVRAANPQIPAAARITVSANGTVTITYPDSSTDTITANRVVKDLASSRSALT	-0.332
RS2L (Ralstonia solanacearum), B5RXL5_RALSO (protein) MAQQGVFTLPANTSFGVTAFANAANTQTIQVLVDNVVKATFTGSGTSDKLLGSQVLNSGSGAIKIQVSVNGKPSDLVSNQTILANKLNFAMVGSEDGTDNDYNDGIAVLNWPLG	3.42
Vd2LysM (Verticillium dahliae) (protein) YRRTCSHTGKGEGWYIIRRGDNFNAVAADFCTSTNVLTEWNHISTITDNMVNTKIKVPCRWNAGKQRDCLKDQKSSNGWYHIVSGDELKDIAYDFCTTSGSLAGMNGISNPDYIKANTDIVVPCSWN	2.21

Query block: Dear colleague, I am looking for the recorded glycan array binding signal (z-score) of the following binder: SefD (Salmonella enterica), Q9L6K6 (protein) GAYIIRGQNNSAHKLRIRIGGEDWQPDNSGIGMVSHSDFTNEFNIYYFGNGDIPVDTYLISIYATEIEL
Result block: -0.324
